target_or_test_system: soluble guanylate cyclase (sGC), α1 and β1 subunits of guanylate cyclase expressed in Sf9 cells (Homo sapiens, UniProt Q02108+Q02153)
Construct: made in house; host or cells: Sf9 insect cells (baculovirus co-infection)
Sequence (Q02108 whole entry): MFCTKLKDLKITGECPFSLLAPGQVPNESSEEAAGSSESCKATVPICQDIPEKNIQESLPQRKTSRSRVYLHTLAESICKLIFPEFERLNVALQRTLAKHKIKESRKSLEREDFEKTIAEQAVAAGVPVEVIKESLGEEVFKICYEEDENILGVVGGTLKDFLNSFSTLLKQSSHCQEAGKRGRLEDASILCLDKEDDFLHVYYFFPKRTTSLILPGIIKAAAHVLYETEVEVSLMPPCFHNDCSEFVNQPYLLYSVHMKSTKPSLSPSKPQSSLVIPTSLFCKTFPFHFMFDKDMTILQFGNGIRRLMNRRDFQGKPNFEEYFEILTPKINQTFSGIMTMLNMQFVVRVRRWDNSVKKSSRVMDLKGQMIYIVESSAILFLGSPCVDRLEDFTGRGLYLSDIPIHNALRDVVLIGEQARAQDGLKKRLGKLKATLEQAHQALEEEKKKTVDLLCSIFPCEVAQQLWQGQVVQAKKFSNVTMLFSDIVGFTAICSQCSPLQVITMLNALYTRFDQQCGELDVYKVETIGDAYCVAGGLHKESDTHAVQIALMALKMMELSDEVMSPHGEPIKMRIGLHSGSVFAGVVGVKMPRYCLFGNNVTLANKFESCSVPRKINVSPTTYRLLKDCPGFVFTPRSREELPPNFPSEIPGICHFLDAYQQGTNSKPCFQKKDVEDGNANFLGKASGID
Sequence (Q02153 whole entry): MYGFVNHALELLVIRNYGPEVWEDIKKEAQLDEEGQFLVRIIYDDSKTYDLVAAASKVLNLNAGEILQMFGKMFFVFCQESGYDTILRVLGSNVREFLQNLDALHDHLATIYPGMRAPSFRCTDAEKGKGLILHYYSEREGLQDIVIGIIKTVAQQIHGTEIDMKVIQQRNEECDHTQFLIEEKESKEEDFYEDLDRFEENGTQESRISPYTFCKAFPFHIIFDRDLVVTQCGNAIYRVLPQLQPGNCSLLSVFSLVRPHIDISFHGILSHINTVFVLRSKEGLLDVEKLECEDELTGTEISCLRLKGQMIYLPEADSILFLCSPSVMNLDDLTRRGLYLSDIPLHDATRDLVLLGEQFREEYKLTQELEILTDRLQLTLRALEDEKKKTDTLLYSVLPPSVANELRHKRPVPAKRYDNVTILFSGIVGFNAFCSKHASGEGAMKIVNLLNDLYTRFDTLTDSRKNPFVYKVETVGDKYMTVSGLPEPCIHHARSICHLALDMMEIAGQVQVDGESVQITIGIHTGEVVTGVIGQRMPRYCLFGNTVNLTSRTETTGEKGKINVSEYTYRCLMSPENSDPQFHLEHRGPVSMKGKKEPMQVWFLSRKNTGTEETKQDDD
measurement_protocol: Guanylate cyclase assay (formation of cyclic GMP from GTP)
Format: biochemical
details: (activity of compound at 100 μM with 1 μM SNP)−(activity of compound at 100 μM)/(activity of SNP at 1 μM)−(basal activity of sGC)
Output YES for Mean activation at 100 μM not less than 8; output NO otherwise.

compound | assigned_class
COc1ccc(Sc2ccccc2/C=C/C(=O)NCCCCO)cc1 | YES
COc1cccc(Sc2ccccc2/C=C/C(=O)NC2CCC(O)CC2)c1 (centres unmarked) | NO
CONCCCCNC(=O)CCc1ccccc1Sc1ccc(Cl)cc1 | NO
CC(C)CCSc1ccccc1/C=C/C(=O)NCCCCCO | YES
CC(C)CCSc1ccccc1/C=C/C(=O)N1CCC(O)CC1 | YES
